Molecular target: HLA-A2 (human)
Assay: assembly assay, T2 cells, [35S]-labelled class I MHC, immunoprecipitation and IEF
C50 (peptide concentration for half maximal binding) reference
Write the number in µM without appending the unit.

Examples from the recorded data:
Binder	Measured Value
LTAEVPPEL (Synthetic peptide bought from Research Genetics, >80% purity) [ML-IAP99 (LTAEVPPEL)]	0.9
RLQEERTCKV (Synthetic peptide bought from Research Genetics, >80% purity) [ML-IAP245 (RLQEERTCKV)]	1
RLASFYDWPL (Synthetic peptide bought from Research Genetics, >80% purity) [ML-IAP90 (RLASFYDWPL)]	0.2
QILGQLRPL (Synthetic peptide bought from Research Genetics, >80% purity) [ML-IAP54 (QILGQLRPL)]	1
QLCPICRAPV (Synthetic peptide bought from Research Genetics, >80% purity) [ML-IAP280 (QLCPICRAPV)]	20

Entry under review: SLGSPVLGL (Synthetic peptide bought from Research Genetics, >80% purity) [ML-IAP34 (SLGSPVLGL)] . Reported C50 (peptide concentration for half maximal binding)?
1

Entry under review: GMGSEELRL (Synthetic peptide bought from Research Genetics, >80% purity) [ML-IAP83 (GMGSEELRL)] . Reported C50 (peptide concentration for half maximal binding)?
30

Entry under review: LLRSKGRDFV (Synthetic peptide bought from Research Genetics, >80% purity) [ML-IAP154 (LLRSKGRDFV)] . Reported C50 (peptide concentration for half maximal binding)?
10
